test-protocol: Quantitative High-Throughput drug screen in 47 multiple myeloma cell lines against the NCATS MIPE library collection: KMS12PE_JCRB cell viability assay (AID 1918972); note: nearly all actives have a fitted effect of over 30% in size
measurement-conditions: KMS12PE myeloma viability, CellTiter-Glo ATP, 48 h; series mostly up to 45.8 µM
Records with an inconclusive call do not appear. Active and inactive are the calls of the source. Calls come from the whole dose curve; as a rule, active = well fitted cell-killing curve with a large enough effect; inconclusive = small, poorly fitted or top-dose-only effect, or effect the other way; inactive = no such curve, though single readings can be large or run the other way.
Possible outcomes: Yes (active), No (inactive)

{"columns": ["compound", "cat"],
 "data": [
  ["Nc1ccn([C@@H]2O[C@H](CO)[C@H](O)C2(F)F)c(=O)n1", "Yes"],
  ["C[C@H]1C[C@@H]2[C@@H]([C@@H](O)C[C@@]3(C)[C@H]2CC[C@]3(O)C(=O)CO)[C@@]2(C)C=CC(=O)C=C12", "No"],
  ["Nc1cc(C(F)(F)F)c(-c2cc(N3CCOCC3)nc(N3CCOCC3)n2)cn1", "Yes"],
  ["CC(C)[C@H](C(=O)Nc1ccc(C(=O)NO)cc1)c1ccccc1", "Yes"],
  ["Nc1nc(Nc2ccc(S(N)(=O)=O)cc2)nn1C(=O)c1c(F)cccc1F", "Yes"],
  ["Cn1cc(-c2ccncc2)c(-c2ccc(OCc3ccc4ccccc4n3)cc2)n1", "Yes"],
  ["COc1cccc(-c2ccc(NC(=O)C3=C(C(=O)O)CCC3)c(F)c2)c1", "Yes"],
  ["O=C(O)CCCc1c[nH]c2ccccc12", "No"],
  ["OCCCNc1cc(-c2ccnc(Nc3cccc(Cl)c3)n2)ccn1", "Yes"],
  ["CCNC(=O)Nc1ccc2ncc(Nc3ccc(C)cc3)nc2n1", "Yes"],
  ["Cc1cn2c(-c3cn[nH]c3)cnc2c(Nc2ccc(C(=O)N3CCNCC3)cc2F)n1", "Yes"],
  ["Cc1cc(C(=O)N2CCN(c3cccc(Cl)c3)CC2)n(-c2ccccc2)n1", "Yes"],
  ["COc1cc2c(NC3CCN(C(C)C)CC3)nc(C3CCCCC3)nc2cc1OCCCN1CCCC1", "Yes"],
  ["CC(NCc1ccc2c(c1)nc(NC(=O)c1ccc(-c3cn[nH]c3)s1)n2CC(C)(C)O)C(C)(C)C (stereo not drawn)", "Yes"],
  ["COc1cc(C)c(Sc2cnc(NC(=O)c3ccc(CNC(C)C(C)C)cc3)s2)cc1C(=O)N1CCN(C(C)=O)CC1 (stereo not drawn)", "No"],
  ["CCn1cc(-c2ccnc3[nH]c(-c4cccc(CN(C)C)c4)cc23)c(-c2ccc(NC(=O)N(C)C)cc2)n1", "Yes"],
  ["C[C@]12CC[C@H](O)CC1=CCC1C2CC[C@]2(C)C(n3cnc4ccccc43)=CCC12 (stereo partly drawn)", "No"],
  ["CCc1c2c(nc3ccc(O)cc13)-c1cc3c(c(=O)n1C2)COC(=O)[C@]3(O)CC", "Yes"],
  ["O=C(O)Cn1nnc(-c2cc(N3CCC(Oc4cc(F)ccc4Br)CC3)no2)n1", "No"],
  ["CC[C@@H]1C(=O)N(C)c2cnc(Nc3ccc(C(=O)NC4CCN(C)CC4)cc3OC)nc2N1C1CCCC1", "Yes"],
  ["CC(C)c1cnn2c(NCc3ccccc3)cc(N[C@@H](CO)[C@H](O)CO)nc12", "Yes"],
  ["Nc1ccccc1NC(=O)c1ccc(CNC(=O)OCc2cccnc2)cc1", "Yes"],
  ["CC(=O)Nc1nc(C)c(-c2ccc(Cl)c(S(=O)(=O)NCCO)c2)s1", "Yes"],
  ["C1=CCOCc2cc(ccc2OCCN2CCCC2)Nc2nccc(n2)-c2cccc(c2)OCC1", "Yes"],
  ["CN1CC[C@@H](c2c(O)cc(O)c3c(=O)cc(-c4ccccc4Cl)oc23)[C@@H](O)C1", "Yes"],
  ["CC(C)c1ccccc1Cc1cc(C(=O)Nc2ccc(S(=O)(=O)c3ccccc3C(C)(C)C)cc2)c(O)c(O)c1O", "No"],
  ["CN1CCN(c2ccc3nc(-c4c(N)c5c(F)cccc5[nH]c4=O)[nH]c3c2)CC1", "Yes"],
  ["N#CCNC(=O)c1ccc(-c2ccnc(Nc3ccc(N4CCOCC4)cc3)n2)cc1", "Yes"],
  ["CN1CCC(CNc2ccc3ncc(-c4cccc(OC(F)(F)F)c4)n3n2)CC1", "Yes"],
  ["Cn1cc(-c2[nH]c3cc(NC(=O)[C@H](N)C4CCCCC4)cc4c3c2C=NNC4=O)cn1", "Yes"],
  ["C=CC(=O)Nc1cc2c(Nc3ccc(F)c(Cl)c3)ncnc2cc1C#CC(C)(C)N1CCN(C)CC1", "Yes"],
  ["CC(=O)OCC(=O)[C@@]1(O)[C@H](C)C[C@H]2[C@@H]3C=C(C)C4=Cc5c(cnn5-c5ccccc5)C[C@]4(C)[C@@H]3[C@@H](O)C[C@@]21C", "Yes"],
  ["O=C(O)c1ccc2c(c1)nc(Nc1cccc(Cl)c1)c1ccncc12", "Yes"],
  ["Nc1nccc(Oc2ccc(NC(=O)c3c[nH]cc(-c4ccc(F)cc4)c3=O)cc2F)c1Cl", "No"],
  ["COc1ccc(-n2nc(C(N)=O)c3c2C(=O)N(c2ccc(N4CCCCC4=O)cc2)CC3)cc1", "No"],
  ["CC(C)Nc1cc(C(F)(F)F)cc2nc(NC(=O)c3cccnc3)nn12", "No"],
  ["CC(C)CC(=O)Nc1n[nH]c2c1CN(C(=O)C1CCN(C)CC1)C2(C)C", "Yes"],
  ["COc1cc2nccc(Oc3ccc(NC(=O)C4(C(=O)Nc5ccc(F)cc5)CC4)cc3)c2cc1OC", "Yes"]
]}
